Target: Mnk2 (Homo sapiens, UniProt Q9HBH9)
Construct: purchased Upstate, Millipore Bioscience Division (KinaseProfiler service)
Sequence (Q9HBH9 whole entry): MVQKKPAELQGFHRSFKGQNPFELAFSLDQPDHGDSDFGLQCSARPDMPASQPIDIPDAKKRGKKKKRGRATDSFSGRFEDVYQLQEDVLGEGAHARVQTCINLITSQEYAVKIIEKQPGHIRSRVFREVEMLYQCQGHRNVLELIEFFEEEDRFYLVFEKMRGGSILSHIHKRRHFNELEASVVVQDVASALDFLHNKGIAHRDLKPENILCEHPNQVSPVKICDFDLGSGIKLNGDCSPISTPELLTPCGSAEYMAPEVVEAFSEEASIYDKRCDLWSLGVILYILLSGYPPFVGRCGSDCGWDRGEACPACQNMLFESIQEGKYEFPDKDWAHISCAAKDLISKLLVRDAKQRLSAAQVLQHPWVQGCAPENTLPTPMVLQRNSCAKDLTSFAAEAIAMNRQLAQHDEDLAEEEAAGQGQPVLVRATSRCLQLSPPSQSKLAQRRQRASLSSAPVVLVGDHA
Format: biochemical
Excerpt: Compounds of Formulae I and II were examined for activity against a selected panel of kinases using the KinaseProfiler™ enzyme profiling services (Upstate, Millipore Bioscience Division). […]
observation-type: Percent inhibition Mnk2 at 1 μM
// print number alone

The following molecules have reported results that may help.
NC(=O)Cn1ccc2cc(CN3CC[C@@H](Nc4cccc5cnccc45)C3)ccc21 [Compound 2.059]; 49
NC(=O)Cn1ccc2cc(CN3CCC[C@@H](Nc4ccc5[nH]ncc5c4)C3)ccc21 [Compound 1.162]; 111
Cc1ccc(CN2CCC[C@@H](Nc3ccc4[nH]ncc4c3)C2)cc1OCCO [Compound 1.161]; 108

Now for another entry.
## Input Please list Percent inhibition Mnk2 at 1 μM recorded for the molecule OCCn1ccc2cc(CN3CC[C@@H](Nc4cccc5cnccc45)C3)ccc21 [Compound 2.066]
## Output 99
